Target: T1, His-tagged human CD38 (ACRO Biosystems CD8-H5224) (human, UniProt P28907 43-300)
T1 construct: bought protein; used for ELISA coating and as SPR analyte; not shown: His tag
Test: SPR, IgG
Let's look at some binders and their measured pKd.
pKd here: minus log base 10 of the concentration, concentration in moles per litre.

Example binders with recorded pKd:
INSERT INTO assay_data (binder, reported_property, meas_value) VALUES
  ('40769p2.2.A9 IgG (antibody, V domains shown, IgG) VH: EVQLLESGGGLVQPGGSLRLSCTASGITFSRFNMFWVRQAPGKGLEFVASIRDDGSWTYYADSVKGQFTISRDNSKNTLYLQMNSLRAEDTAVYYCAKDYNSKDFIYHYVMDVWGQGTTVTVSS VL: QSVLTQPPSASGTPGQRVTISCSGRNSNIGNNVVNWYQQLPGTAPKLLIYRNQERPSGVPDRFSGSKSGTSASLAISGLQSEDEADYYCSTWDDSLNGWVFGGGTKLTVL', 'pKd', 7.95),
  ('40769p2.1.E1 IgG (antibody, V domains shown, IgG) VH: EVQLLESGGGLIQPGGSLRLSCTASGFDFSSYGMHWVRQAPGKGLEWVAIISDSGGTTYYGDSVKGRFTISRDNSKSTLYLQMNSLRAEDTALYYCASYIMDVWGQGTTVTVSS VL: QSVLTQPPSASGTPEQRVTISCSGSNSNVGDNAVYWYQQLPGTAPKLLFYGTNRRPSGVPDRFSGSKSGTSASLAISGLQSEDEADYYCAAWDDSLNAWVFGGGTKLTVL', 'pKd', 7.59),
  ('40769p2.2.G3 IgG (antibody, V domains shown, IgG) VH: EVQLLESGGGLVQPGGSLRLSCTASGITFSRFNMFWVRQAPGKGLEFVASIRDDGSWTYYADSVKGQFTISRDNSKNTLYLQMNSLRAEDTAVYYCAKDYSSKDFIYHYVMDVWGQGTTVTVSS VL: QSVLTQPPSASGTPGQRVTISCSGRNSNIGNNVVNWYQQLPGTAPKLLIYRNQERPSGVPDRFSGSKSGTSASLAISGLQSEDEADYYCASWDDSLNAWVFGRGTKLTVL', 'pKd', 7.30);

Next:
State the recorded pKd for this entry: 40769p2.2.D3 IgG (antibody, V domains shown, IgG) VH: EVQLLESGGGLIQPGGSLRLSCTASGFDFSSYGMHWVRQAPGKGLEWVGIISDSGGTTYYADSVKGRFTISRDNSKNTLYLQMNSLRAEDTALYYCASYIMDVWGQGITVTVSS VL: QSVLTQPPSASGTPGQRVTISCSGSNSNVGVNSVYWYQQLPGTAPKLLIYGSGRRPSGVPDRFSVSKSGTSASLAISGLQSEDEADYYCAAWDGGLNAWVFGGGTKLTVL
7.38
